biological target: T1, recombinant Motavizumab human IgE (rMota-hIgE) (human, UniProt P01854 1-428); test: hIgE binding ELISA
T1 construct: also called Recombinant IgE (argenx)
T1 sequence (P01854 other isoform, or with tags, fused parts or gaps limits assumed, form in doubt): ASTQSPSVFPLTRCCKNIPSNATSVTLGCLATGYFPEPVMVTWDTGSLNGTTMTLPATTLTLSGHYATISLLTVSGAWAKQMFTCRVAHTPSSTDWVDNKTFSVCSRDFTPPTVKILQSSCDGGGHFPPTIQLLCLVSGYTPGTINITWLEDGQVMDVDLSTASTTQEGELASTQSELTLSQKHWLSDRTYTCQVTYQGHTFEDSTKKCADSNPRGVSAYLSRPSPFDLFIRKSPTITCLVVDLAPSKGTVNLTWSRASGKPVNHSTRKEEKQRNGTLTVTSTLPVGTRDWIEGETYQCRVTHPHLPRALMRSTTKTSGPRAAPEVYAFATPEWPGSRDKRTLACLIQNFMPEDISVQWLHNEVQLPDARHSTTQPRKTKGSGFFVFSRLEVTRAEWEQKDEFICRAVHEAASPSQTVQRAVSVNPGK
Examples of binders with documented Ratio EC50 pH 5.5/7.4 follow.
Measurement label: Ratio EC50 pH 5.5/7.4

# Binder, Result
records = [
    ("OmaVH15G55H - VL3D28HS31H (antibody, V domains shown) VH: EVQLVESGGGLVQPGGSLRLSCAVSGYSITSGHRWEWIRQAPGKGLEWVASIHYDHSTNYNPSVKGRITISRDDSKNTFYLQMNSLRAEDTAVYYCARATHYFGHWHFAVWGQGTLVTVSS VL: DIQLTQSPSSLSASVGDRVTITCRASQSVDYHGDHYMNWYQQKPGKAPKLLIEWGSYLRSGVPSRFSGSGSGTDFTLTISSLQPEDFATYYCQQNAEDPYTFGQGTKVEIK", 1.5),
    ("OMA VH15 - VL3D28HS31H (antibody, V domains shown) VH: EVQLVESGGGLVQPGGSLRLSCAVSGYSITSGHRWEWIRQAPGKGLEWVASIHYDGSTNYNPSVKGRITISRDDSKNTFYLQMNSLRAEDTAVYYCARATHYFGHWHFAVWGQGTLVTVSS VL: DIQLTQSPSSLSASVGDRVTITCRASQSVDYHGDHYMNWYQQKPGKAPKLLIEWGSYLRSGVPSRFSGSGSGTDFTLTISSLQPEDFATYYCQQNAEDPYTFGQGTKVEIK", 1.2),
    ("Oma VH15W100b - VL3 (antibody, V domains shown) VH: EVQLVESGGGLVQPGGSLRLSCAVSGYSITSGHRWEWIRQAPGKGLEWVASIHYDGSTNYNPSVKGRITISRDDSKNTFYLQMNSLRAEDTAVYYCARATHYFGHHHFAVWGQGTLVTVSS VL: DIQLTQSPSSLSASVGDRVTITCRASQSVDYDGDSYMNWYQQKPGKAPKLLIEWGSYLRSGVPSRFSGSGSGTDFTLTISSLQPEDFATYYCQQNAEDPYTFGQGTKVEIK", 1.9),
]
